- system: ΔNHAB1 with AtPYL10 (Arabidopsis thaliana)
- Sequence (Q8H1R0 whole entry, stated change not applied): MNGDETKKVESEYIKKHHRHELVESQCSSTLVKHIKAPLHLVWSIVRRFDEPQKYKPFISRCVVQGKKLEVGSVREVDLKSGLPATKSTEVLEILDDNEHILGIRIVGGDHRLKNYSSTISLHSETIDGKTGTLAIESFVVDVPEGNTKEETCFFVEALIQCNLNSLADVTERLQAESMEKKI
measured-parameter: pIC50
Quick note: pIC50 means taking -log10 of the concentration in moles per liter.

## Input // lookup pIC50 for Cc1cc(=O)n(C)c2ccc(S(=O)(=O)NCc3ccccc3)cc12 [SB]
## Output 6.30

###

- system: ABI1 with AtPYL1 (Arabidopsis thaliana, UniProt Q8VZS8)
- Construct: His; made in house
- test-details: PP2C inhibition assay, ABI1 with AtPYL1
- Format: biochemical
measured-parameter: pIC50
Conceptually, pIC50 converts a concentration in mol/L into minus its log10.

## Input Bench note: what pIC50 did CC1=CC(=O)CC(C)(C)[C@@]1(O)/C=C/C(C)=C\C(=O)O [ABA, abscisic acid, reference compound] show?
## Output 6.56

###

- system: ABI1 with AtPYL1 (Arabidopsis thaliana, UniProt Q8VZS8)
- Construct: His; made in house
- Sequence (Q8VZS8 1-221): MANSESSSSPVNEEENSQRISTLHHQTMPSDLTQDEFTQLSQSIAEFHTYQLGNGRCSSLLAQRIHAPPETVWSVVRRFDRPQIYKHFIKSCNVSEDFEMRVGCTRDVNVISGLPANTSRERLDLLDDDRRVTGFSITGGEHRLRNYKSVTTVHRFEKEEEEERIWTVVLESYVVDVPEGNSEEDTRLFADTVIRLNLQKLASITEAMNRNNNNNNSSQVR
- Sequence (P49597 1-434 partner): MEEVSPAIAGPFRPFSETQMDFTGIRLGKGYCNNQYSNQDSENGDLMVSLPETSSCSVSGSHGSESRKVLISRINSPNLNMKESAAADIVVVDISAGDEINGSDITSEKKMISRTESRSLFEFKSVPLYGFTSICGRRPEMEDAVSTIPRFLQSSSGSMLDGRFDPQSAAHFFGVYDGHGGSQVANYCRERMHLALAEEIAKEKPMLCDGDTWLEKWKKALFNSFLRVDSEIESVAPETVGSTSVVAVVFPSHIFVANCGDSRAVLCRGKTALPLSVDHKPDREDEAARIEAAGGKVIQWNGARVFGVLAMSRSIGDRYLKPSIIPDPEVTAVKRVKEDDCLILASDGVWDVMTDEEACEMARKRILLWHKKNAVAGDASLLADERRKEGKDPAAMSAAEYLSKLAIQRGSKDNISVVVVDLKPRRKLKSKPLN
- test-details: PP2C inhibition assay, ABI1 with AtPYL1
- Type: biochemical
- condition-summary: 1 µM phosphatase:2 µM receptor; read-out: IC50 of ABI1 with AtPYL1
- Experimental: His-tagged receptors and phosphatases were purified using nickel–nitrilotriacetic acid (Ni-NTA) affinity chromatography. Protein integrity was analyzed by SDS–polyacrylamide gel electrophoresis, followed by InstantBlue staining. Phosphatase activity was measured using p-Nitrophenyl Phosphate (pNPP) (25 mM) as substrate, 10 mM MnCl2,1 μM PP2C, and 2 μM of the indicated receptors. […] Phosphatase activity of ABI1 was measured using RRA(phosphoT)VA peptide as a substrate, as described ([27]). […]
measured-parameter: IC50 (nM)
Output spec: scalar in nM, unitless text.

## Input Param item = CCn1c(=O)cc(C)c2cc(CNS(=O)(=O)c3ccccc3)ccc21 ; retrieve measured IC50.
## Output 226

###

- system: ΔNHAB1 with AtPYL1 (Arabidopsis thaliana, UniProt Q8VZS8)
measured-parameter: IC50 (µM)
I only need the number, in µM, no unit after it.

## Input Notebook: pull reported IC50 for ΔNHAB1 with AtPYL1 (Arabidopsis thaliana, UniProt Q8VZS8), entry Cc1cc(=O)n(C)c2ccc(S(=O)(=O)NCc3ccccc3)cc12
## Output 10.1

Source listed as paper PMC10005185.
